Recorded pEC50, one value per entry.
Molecular target: Cholecystokinin receptor type A (Cavia porcellus, UniProt Q63931)
Sequence (Q63931 whole entry): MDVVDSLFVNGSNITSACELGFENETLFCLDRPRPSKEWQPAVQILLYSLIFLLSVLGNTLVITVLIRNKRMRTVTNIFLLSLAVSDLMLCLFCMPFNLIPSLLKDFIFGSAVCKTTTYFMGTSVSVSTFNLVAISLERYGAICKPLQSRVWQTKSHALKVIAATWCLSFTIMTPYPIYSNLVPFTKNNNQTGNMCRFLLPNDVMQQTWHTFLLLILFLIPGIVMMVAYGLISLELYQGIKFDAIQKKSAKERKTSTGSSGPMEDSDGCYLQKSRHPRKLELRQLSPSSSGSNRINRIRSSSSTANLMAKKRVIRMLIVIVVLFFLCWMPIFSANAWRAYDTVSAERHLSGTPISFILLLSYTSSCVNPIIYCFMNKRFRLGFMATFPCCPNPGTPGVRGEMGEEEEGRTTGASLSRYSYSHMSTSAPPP
Experiment: Agonist activity at CCK1 receptor assessed as stimulation of contraction in guinea pig gallbladder
Type: functional
pEC50: −log10 of the molar value.
quantity-kind: pEC50

INSERT INTO results (molecule, quantity_kind, endpoint_value) VALUES
  ('CC(C)N(C(=O)CN1C(=O)C(CC(=O)Nc2ccccc2)C(=O)N(c2ccccc2)c2ccccc21)c1ccccc1 (configuration not stated)', 'pEC50', 6.40),
  ('CC(C)N(C(=O)CN1C(=O)C(NC(=O)Nc2cccc(C(=O)O)c2)C(=O)N(c2ccccc2)c2ccccc21)c1ccccc1 (configuration not stated)', 'pEC50', 7.40);
